Cited source for all entries: PubChem BioAssay (NCI)

Here, each record is paired with measured growth data.
System: TK-10 renal
test-name: NCI-60 one-dose screen, 48 h (100 = growth as untreated, 0 = no growth, -100 = all killed)
conditions: 10 µM unless noted
The panel holds about 83,000 compounds, 20% with a hit somewhere; the sample as a whole holds those more often.
measurement-type: growth (%)

| compound | measurement-type | value-reported |
| --- | --- | --- |
| O=C(Nc1cccc2c1C(=O)c1cccc(NC(=O)c3ccc(C(=O)Nc4cccc5c4C(=O)c4cccc(NC(=O)c6ccccc6)c4C5=O)cc3)c1C2=O)c1ccccc1 | growth | 121 |
| O=C1NCCS(=O)(=O)/C1=C\C=C\c1cccc(C(F)(F)F)c1 | growth | 33.6 |
| NC(=O)[C@@H]1Cc2ccccc2CN1C(=O)c1ccc2c(c1)Cc1ccccc1-2 | growth | 93.4 |
| Cn1ncc(CC(=O)O)c1-n1nnc2cc(Cl)ccc2c1=O | growth | 90.7 |
| O=C(COc1ccc(/C=C2\Oc3ccccc3C2=O)cc1)Nc1nccs1 | growth | 134 |
| CC1(C)CC[C@]2(CO)CC[C@]3(C)[C@H](CC[C@@H]4[C@@]5(C)CC[C@H](O)C(C)(C)[C@@H]5CC[C@]43C)[C@H]2[C@H]1O | growth | 58.7 |
| COc1cc2nc3cc([N+](=O)[O-])ccc3c(NCCCNCCO)c2cc1OC | growth | -4.55 |
| COc1cc(-c2c(-c3ccccc3)c[nH]c2C(=O)NCCCO)c(OC)c2c1OCO2 | growth | 99 |
| CC(=O)O[C@H]1CC[C@@]2(C)C(=CC[C@@H]3[C@@H]2CC[C@]2(C)C(Cl)=C(c4nc5ccc(Cl)cn5c4NC(C)(C)C)C[C@@H]32)C1 | growth | 89.3 |
| CNC(=O)c1cc(Oc2ccc3nc(NC(=O)NC(C)C)sc3c2)ccn1 | growth | 88.6 |
| COC(=O)c1cc(-c2ccc(OC)c(OC)c2)[nH]c1N/N=C/c1c(Cl)cccc1Cl | growth | 57.2 |
| COC(=O)c1nc(-c2ccccc2)oc1S(=O)(=O)NCC(c1ccc(Cl)cc1)N1CCCCC1 (stereo not given) | growth | 67.3 |
| Cc1[nH]c(C2CC(c3ccc(C(F)(F)F)c(F)c3)=NN2C)c(C)c1C(=O)NCC(F)(F)F (stereo not given) | growth | 116 |
| Cc1ccc(-c2nn(CC(=O)N3CCOCC3)c(N)c2C#N)cc1 | growth | 105 |
| O=C1c2c(c3c4cccnc4[nH]c3c3ccc4ccccc4c23)C(=O)N1O | growth | 133 |
| CCCCCCCCNc1ncnc2c1ncn2Cc1nnc2c3ccccc3c(Cl)nn12 | growth | 43.8 |
| Cc1nc2c(c(-c3ccccc3)n1)Cc1c(ccc3ccccc13)O2 | growth | 106 |
| CNC(=O)c1cc(Oc2cccc3nc(NC(=O)Nc4ccc(F)cc4F)ccc23)ccn1 | growth | -37.7 |
| CN(C)C(=O)OCc1ccc2c(Cl)cc(Cl)c(O)c2n1 | growth | 64.2 |
| Nc1nc(Nc2ccc([N+](=O)[O-])cc2O)nc(C(Cl)(Cl)Cl)n1 | growth | 92.4 |

----------
Test system: U251 CNS
test-name: NCI-60 one-dose screen, 48 h (100 = growth as untreated, 0 = no growth, -100 = all killed)
conditions: 10 µM unless noted
About 83,000 compounds went through this panel and 20% of them were active in at least one assay; those are over-represented in the sample as a whole.
measurement-type: growth (%)

| compound | value-reported |
| --- | --- |
| Cc1ccc(Nc2nc(N)nc(N)c2N=O)cc1Cl | 87 |
| CN(CCNc1ccc(C(=N)N)cc1)c1ccc(C(=N)N)cc1 | 81.2 |
| COc1ccc(-c2nc3cc(C(=O)NC4CCCCC4)ccc3n2C2CCCCC2)cc1 | 91.5 |
| COc1cc(C)cc(-c2c(-c3cc(N4CC(O)C4)nc(-c4cccnc4)n3)cnn2C)c1 | 91.3 |
| C=CCNc1ccc2c3c(cccc13)C(=O)N(CC=C)C2=O | 103 |
| COc1ccc(-c2cc(-c3ccc(N(C)C)cc3)nc(NC(=O)c3cccnc3)n2)cc1 | 98.9 |
| COC(CCP(=O)(c1ccccc1)c1ccccc1)(C(=O)c1ccccc1)c1ccccc1 (centres undefined) | 71.3 |
| Cc1cc2nc(C(Cl)Cl)nc(-c3ccccc3)n2n1 | 36 |
| CO[C@H]1/C=C/O[C@@]2(C)Oc3c(C)c(O)c4c(O)c(c5c(nc6cc(C)ccn65)c4c3C2=O)NC(=O)/C(C)=C\C=C\[C@H](C)[C@H](O)[C@@H](C)C(O)[C@@H](C)[C@H](OC(C)=O)[C@@H]1C (some centres undefined) | 98.2 |
